molecular target: Sphingosine 1-phosphate receptor 3 (Homo sapiens); assay: S1P3 receptor NFAT-BLA reporter inhibition, dose response, counter-screen for 5HT1E antagonist project, CHO cells, Ga15, NFAT beta-lactamase, FRET (AID 776)
Sequence (Q99500 whole entry): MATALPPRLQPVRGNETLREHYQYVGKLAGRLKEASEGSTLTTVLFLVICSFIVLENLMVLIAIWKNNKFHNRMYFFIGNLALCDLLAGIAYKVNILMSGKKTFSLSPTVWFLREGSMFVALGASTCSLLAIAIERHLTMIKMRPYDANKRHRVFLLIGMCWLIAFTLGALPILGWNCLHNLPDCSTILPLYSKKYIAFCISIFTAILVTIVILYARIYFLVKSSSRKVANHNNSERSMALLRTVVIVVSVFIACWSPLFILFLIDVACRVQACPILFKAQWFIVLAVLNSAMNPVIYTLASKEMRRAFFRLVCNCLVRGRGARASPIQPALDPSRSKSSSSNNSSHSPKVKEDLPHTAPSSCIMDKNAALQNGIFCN
pIC50: −log10 of the molar value.
measured_parameter: pIC50

smiles_entry=CC(=O)Oc1ccc(-n2c(O)c3c(c2O)C2(C)C=CC3(C)O2)cc1 readout_number=5.12

P = COc1ccc(-c2cc(C(F)(F)F)nc(S(C)(=O)=O)n2)cc1OC
Q = Cn1c(-c2c(N)n(C3CCCC3)c3nc4ccccc4nc23)nc2ccccc21
Enquiry: Which one would you say has the larger pIC50 value: P , or Q ? Write down the label of the entry you select.
Return: Q
